Target: Tyrosine-protein kinase FRK (Homo sapiens) (UniProt P42685)
Sequence (P42685 whole entry): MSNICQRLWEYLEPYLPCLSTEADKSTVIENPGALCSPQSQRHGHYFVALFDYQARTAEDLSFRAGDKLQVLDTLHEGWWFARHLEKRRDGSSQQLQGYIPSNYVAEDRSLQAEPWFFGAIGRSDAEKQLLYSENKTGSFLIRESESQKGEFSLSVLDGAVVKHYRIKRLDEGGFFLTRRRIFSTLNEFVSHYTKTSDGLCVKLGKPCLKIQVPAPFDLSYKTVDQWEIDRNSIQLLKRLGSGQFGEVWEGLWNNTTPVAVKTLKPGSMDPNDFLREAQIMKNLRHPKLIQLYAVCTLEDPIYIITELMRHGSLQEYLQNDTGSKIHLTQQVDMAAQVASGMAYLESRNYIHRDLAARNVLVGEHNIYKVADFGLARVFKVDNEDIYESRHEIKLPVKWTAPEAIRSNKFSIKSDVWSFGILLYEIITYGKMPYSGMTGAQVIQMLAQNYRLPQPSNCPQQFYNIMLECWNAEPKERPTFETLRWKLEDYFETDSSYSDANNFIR
Settings: at 1 µM
assay_endpoint: inhibition (%)
Use % as the unit, but write only the number.

Known results for compounds:
                                        mol  output_unit  observed_value
0  CS(=O)(=O)CCNCc1ccc(-c2ccc3ncnc(Nc4ccc(OCc5ccccc5)c(C(F)(F)F)c4)c3c2)o1            %            2.29
1  Cc1cccc2c1NC(=O)/C2=N\Nc1ccc(S(N)(=O)=O)cc1            %            0.62
2  COc1cc2c(cc1Nc1nc(Nc3ccsc3C(N)=O)c3cc[nH]c3n1)N(C(=O)CN(C)C)CCC2(C)C            %            8.45
3  O=C(Nc1n[nH]c2cc(-c3ccc(F)cc3)ccc12)C1CC1            %            2.21
4  COc1ccc(-c2oc3ncnc(N)c3c2-c2ccc(NC(=O)Nc3cc(C(F)(F)F)ccc3F)cc2)cc1            %              65
5  COc1ccc2[nH]c3c4[nH]c5ccc(OC)cc5c4c4c(c3c2c1)C(=O)NC4=O            %            0.68
6                CCn1c(-c2nonc2N)nc2ccccc21            %            1.69
7  CCn1cc(-c2ccnc3[nH]ccc23)c(-c2cccc(NC(=O)Nc3ccc(OCc4ccccc4)cc3)c2)n1            %            1.39

# assay system Tyrosine-protein kinase FRK (Homo sapiens) (UniProt P42685): give inhibition of NS(=O)(=O)c1ccc(Nc2ncc(-c3ccccc3)o2)cc1
1.36

# assay system Tyrosine-protein kinase FRK (Homo sapiens) (UniProt P42685): give inhibition of COc1cc(Nc2nccc(Nc3ccc4c(C)n[nH]c4c3)n2)cc(OC)c1OC
11.5

# assay system Tyrosine-protein kinase FRK (Homo sapiens) (UniProt P42685): give inhibition of NS(=O)(=O)c1ccc(N/N=C2\C(=O)Nc3ccc4ncccc4c32)cc1
4.11

# assay system Tyrosine-protein kinase FRK (Homo sapiens) (UniProt P42685): give inhibition of N#Cc1c(NC(=O)c2ccc(F)cc2)sc2c1CCCC2
1.01

# assay system Tyrosine-protein kinase FRK (Homo sapiens) (UniProt P42685): give inhibition of CCNC(=O)O[C@H]1CN[C@H](C#Cc2cc3ncnc(Nc4ccc(OCc5cccc(F)c5)c(Cl)c4)c3s2)C1
1.79

# assay system Tyrosine-protein kinase FRK (Homo sapiens) (UniProt P42685): give inhibition of CNC(=O)c1cncc(/C=C/c2ccccc2Cl)c1;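 further: reported percent inhibition is a mean value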
0.05

---

Entries and their inhibition values follow.
Target: Serine/threonine-protein kinase PAK 2 (Homo sapiens);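 further: reported values are mean inhibition of PAK2, averaged over measurements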
Conditions: at 1 µM
Use % as the unit, but write only the number.

                                        mol  assay_endpoint  observed_value
0  COC(=O)Nc1nc2ccc(Oc3ccc(NC(=O)Nc4cccc(Cl)c4)cc3)cc2[nH]1      inhibition            0.02
1  O=S(=O)(CCNCc1ccc(-c2ccc3ncnc(Nc4ccc(OCc5cccc(F)c5)c(Cl)c4)c3c2)o1)c1ccccc1      inhibition            3.71
2  Cc1cccc2c1NC(=O)/C2=N\Nc1ccc(S(N)(=O)=O)cc1      inhibition            1.43
3  [O-][S+]1CCN(Cc2ccc(-c3ccc4ncnc(Nc5ccc(OCc6cccc(F)c6)c(Cl)c5)c4c3)o2)CC1      inhibition            2.89
4  Clc1ccc(-c2nn3ncccc3c2-c2ccnc(Nc3ccccc3)n2)cc1      inhibition           -0.15
5  COC(=O)c1sc(-n2cnc3cc(OC)c(OC)cc32)cc1OCc1ccccc1C(F)(F)F      inhibition            1.84
6  CCCN1CCC(c2ccc(Nc3nc(Nc4cc(F)ccc4C(N)=O)c4cc[nH]c4n3)c(OC)c2)CC1      inhibition            2.08
7  Fc1cccc(COc2ccc(Nc3ncnc4sc(-c5ccco5)cc34)cc2Cl)c1      inhibition            1.67

Now turn to the next molecule.
Check the records and state inhibition for CCOc1ccc2c(-c3ccnc(Nc4cccc(C(F)(F)F)c4)n3)cnn2n1
-0.6

---

Target: G protein-coupled receptor kinase 6 (Homo sapiens) (UniProt P43250);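 further: values are averaged percent inhibition of GRK6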
Sequence (P43250 whole entry, looked up): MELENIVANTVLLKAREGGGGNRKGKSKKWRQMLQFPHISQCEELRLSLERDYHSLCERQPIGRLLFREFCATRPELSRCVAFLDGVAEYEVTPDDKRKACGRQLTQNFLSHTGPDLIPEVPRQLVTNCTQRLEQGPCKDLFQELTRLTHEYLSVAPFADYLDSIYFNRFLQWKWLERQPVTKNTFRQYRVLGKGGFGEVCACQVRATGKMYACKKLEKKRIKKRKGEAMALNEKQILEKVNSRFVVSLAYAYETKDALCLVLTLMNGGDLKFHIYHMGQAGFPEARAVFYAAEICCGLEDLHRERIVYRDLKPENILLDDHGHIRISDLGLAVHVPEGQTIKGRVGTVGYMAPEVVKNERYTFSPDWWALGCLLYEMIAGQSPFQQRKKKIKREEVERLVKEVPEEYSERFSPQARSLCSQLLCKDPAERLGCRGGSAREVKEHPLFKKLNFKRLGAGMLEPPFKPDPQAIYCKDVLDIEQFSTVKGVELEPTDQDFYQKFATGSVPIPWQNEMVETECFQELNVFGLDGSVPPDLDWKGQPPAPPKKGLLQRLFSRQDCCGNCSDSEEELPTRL
Conditions: at 1 µM
assay_endpoint: inhibition (%)
Use % as the unit, but write only the number.

Known results for molecules:
                                        mol  assay_endpoint  observed_value
0  COc1cccc(-c2c[nH]c3c(N/N=C/c4ccncc4)ncnc23)c1      inhibition           -7.11
1  CCCN(CCS(C)(=O)=O)Cc1ccc(-c2ccc3ncnc(Nc4ccc(OCc5cccc(F)c5)c(Cl)c4)c3c2)o1      inhibition            1.91
2             COc1ccc(-c2cc3c(N)ncnc3o2)cc1      inhibition            0.98
3  COC(=O)c1sc(-n2cnc3cc(OC)c(OC)cc32)cc1OCc1ccccc1C(F)(F)F      inhibition            1.16

Now turn to the next molecule.
Check the records and state inhibition for c1ccc(-c2nc3n(c2-c2ccc4c(c2)OCO4)CCC3)nc1
2.38

---

Molecular target: Tyrosine-protein kinase JAK1 (Homo sapiens) (UniProt P23458);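 further: each value is a mean inhibition of JAK1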
Sequence (P23458 whole entry): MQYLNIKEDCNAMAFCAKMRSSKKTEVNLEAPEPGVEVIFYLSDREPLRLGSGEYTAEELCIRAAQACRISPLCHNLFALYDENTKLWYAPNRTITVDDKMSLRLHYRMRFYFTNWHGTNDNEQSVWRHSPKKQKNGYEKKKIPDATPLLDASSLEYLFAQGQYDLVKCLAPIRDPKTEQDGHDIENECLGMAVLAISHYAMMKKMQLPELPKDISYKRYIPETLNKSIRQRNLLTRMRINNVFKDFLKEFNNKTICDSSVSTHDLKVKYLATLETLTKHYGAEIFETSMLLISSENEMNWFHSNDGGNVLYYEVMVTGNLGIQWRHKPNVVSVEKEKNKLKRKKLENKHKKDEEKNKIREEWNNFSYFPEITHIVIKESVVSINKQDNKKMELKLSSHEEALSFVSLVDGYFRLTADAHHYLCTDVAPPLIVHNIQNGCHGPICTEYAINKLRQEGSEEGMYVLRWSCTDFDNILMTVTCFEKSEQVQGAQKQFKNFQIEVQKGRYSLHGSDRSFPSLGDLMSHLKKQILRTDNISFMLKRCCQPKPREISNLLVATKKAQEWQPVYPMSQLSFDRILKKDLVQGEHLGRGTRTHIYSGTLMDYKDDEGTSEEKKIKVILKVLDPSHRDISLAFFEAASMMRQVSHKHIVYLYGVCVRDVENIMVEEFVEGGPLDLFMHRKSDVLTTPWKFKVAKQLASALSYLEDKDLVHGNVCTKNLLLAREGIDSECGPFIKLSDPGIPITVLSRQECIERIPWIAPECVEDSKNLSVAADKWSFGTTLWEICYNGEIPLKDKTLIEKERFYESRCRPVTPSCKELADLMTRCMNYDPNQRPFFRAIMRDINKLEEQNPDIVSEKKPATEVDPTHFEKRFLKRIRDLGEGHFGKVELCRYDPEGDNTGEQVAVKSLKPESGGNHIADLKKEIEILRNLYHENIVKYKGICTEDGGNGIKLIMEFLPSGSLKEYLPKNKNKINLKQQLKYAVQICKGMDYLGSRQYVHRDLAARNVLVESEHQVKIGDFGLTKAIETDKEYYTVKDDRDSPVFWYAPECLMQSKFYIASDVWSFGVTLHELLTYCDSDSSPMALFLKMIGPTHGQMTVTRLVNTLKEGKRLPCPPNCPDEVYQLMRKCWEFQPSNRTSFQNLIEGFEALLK
Details: at 1 µM
assay_endpoint: inhibition (%)
Use % as the unit, but write only the number.

Check the records and state inhibition for CS(=O)(=O)CCNCc1coc(-c2ccc3ncnc(Nc4ccc(OCc5ccccc5)cc4)c3c2)c1
0.69

Check the records and state inhibition for CNC(=O)c1cccc(C#Cc2cncnc2Nc2ccc(OCc3cccc(F)c3)c(Cl)c2)c1
7.9

Check the records and state inhibition for CCn1c(-c2nonc2N)nc2c(C#CC(C)(C)O)nc(OC[C@H](N)c3ccccc3)cc21
-0.29

Check the records and state inhibition for COc1ccc2[nH]c3c4[nH]c5ccc(OC)cc5c4c4c(c3c2c1)C(=O)NC4=O
5.89

Check the records and state inhibition for O=C(O[C@H]1CN[C@H](C#Cc2cc3ncnc(Nc4ccc(Cc5ccccc5)cc4)c3s2)C1)N1CCOCC1
1.8

---

Biological target: Serine/threonine-protein kinase pim-3 (Homo sapiens)
Conditions: at 1 µM
Description: GSK_PKIS: PIM3 mean inhibition at 1 uM [Nanosyn]
assay_endpoint: inhibition (%)
Use % as the unit, but write only the number.

In [3]: df
Out[3]:
                                        mol  assay_endpoint  output_unit  observed_value
0  c1cc(-c2cnn3nc(N4CCOCC4)ccc23)nc(NC2CC2)n1      inhibition            %             4.8
1  CCCN(CCS(C)(=O)=O)Cc1ccc(-c2ccc3ncnc(Nc4ccc(OCc5cccc(F)c5)c(Cl)c4)c3c2)o1      inhibition            %            1.71
2         N#Cc1c(NC(=O)CN2CCOCC2)sc2c1CCCC2      inhibition            %            1.12
3  CC(C)(CO)CNC(=O)c1ccc2c(c1)/C(=N/Nc1ccc(S(N)(=O)=O)cc1)C(=O)N2      inhibition            %            14.2
4          CNC(=O)c1cncc(/C=C/c2ccccc2Cl)c1      inhibition            %             5.1
5  NS(=O)(=O)c1ccc(N/N=C2\C(=O)Nc3ccc4ncccc4c32)cc1      inhibition            %            12.5

Check the records and state inhibition for CC(C)COC(=O)c1ccc2c(c1)/C(=C/Nc1ccc(S(N)(=O)=O)cc1)C(=O)N2
48.8

Check the records and state inhibition for O=S(=O)(CCNCc1ccc(-c2ccc3ncnc(Nc4ccc(OCc5cccc(F)c5)c(Cl)c4)c3c2)o1)c1ccccc1
1.33

Check the records and state inhibition for CNC(=O)c1cccc(C#Cc2cncnc2Nc2ccc(OCc3cccc(F)c3)c(Cl)c2)c1
2.29

---

Target: Protein kinase C alpha type (Homo sapiens) (UniProt P17252);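 further: reported value is the mean inhibition, measured within the GSK PKIS screening panel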
Details: at 1 µM
Given measured inhibition, output yes (1) if it is greater than or equal to 0.9% and no (0) if not.

These solved cases illustrate the format of a correct answer.
In [3]: df
Out[3]:
                                        mol                                       tgt    class
0  CC(C)(CO)CNC(=O)c1ccc2c(c1)/C(=N/Nc1ccc(S(N)(=O)=O)cc1)C(=O)N2  Protein kinase C alpha type (Homo sapiens) (UniProt P17252)   no (0)
1  COC(=O)c1sc(-n2cnc3cc(OC)c(OC)cc32)cc1OCc1ccccc1C(F)(F)F  Protein kinase C alpha type (Homo sapiens) (UniProt P17252)  yes (1)
2  COc1cccc(-c2c[nH]c3c(N/N=C/c4ccncc4)ncnc23)c1  Protein kinase C alpha type (Homo sapiens) (UniProt P17252)  yes (1)

Please find the next molecule below.
inhibition >= 0.9% for NS(=O)(=O)c1ccc(Nc2ncc(-c3ccccc3)o2)cc1 ?
yes (1)

Data origin: ChEMBL document CHEMBL1961873
